TESTED TARGET: wildtype feline IL-31 (Feline_IL31_wildtype) (feline)
Sequence (chain, as listed by the source limits assumed, form in doubt): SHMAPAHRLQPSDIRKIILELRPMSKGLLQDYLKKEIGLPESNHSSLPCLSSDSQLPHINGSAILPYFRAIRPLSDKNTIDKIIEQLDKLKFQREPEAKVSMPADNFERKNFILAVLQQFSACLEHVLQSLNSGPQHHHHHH
ASSAY ENDPOINT: IC50, inhibition of feline IL-31-induced STAT3 phosphorylation, feline FCWF4 cells

Ask | What value of IC50, inhibition of feline IL-31-induced STAT3 phosphorylation, feline FCWF4 cells has been recorded for this entry: Feline 11E12 1.2 (antibody, V domains shown) VH: QVLLVQSGAEVKKPGASVKIFCKASGYSFTYYDINWLRQAPEQGLEWMGWIFPGDGGTKYNETFKGRLTLTADTSTNTVYMELSSLRSADTAMYYCARGGTSVIRDAMDYWGQGALVTVSS VL: EVVLTQSSAFLSRTLKEKATITCRASESVDNYGISFMHWYQQKPNQAPKLLVKRASNLESGAPSRFSGSGSGTDFTLTISSPEPEDAATYYCQQSNKDPLTFGQGT
Reply | > 100 µg/mL
